Test system: HL-60(TB) leukemia
EXPERIMENT NOTES: NCI tumour cell line growth inhibition, 48 h
MEASURED QUANTITY: TGI (µM)
Answers are plain numbers, in µM.

Check out these entries, answers already filled in.
MOLECULE	TARGET OR TEST SYSTEM	MEASURED QUANTITY	QUANTITATIVE RESULT
C=C1CC[C@@H]2[C@](C)(COC(C)=O)[C@H](OC(C)=O)CC[C@@]2(C)[C@@H]1CC(Nc1ccc(S(=O)(=O)Nc2nccc(C)n2)cc1)C1=CCOC1=O (stereo not given in full)	HL-60(TB) leukemia	TGI	5.63
ClCc1c(Cl)c(Cl)c(Cl)c(CCl)c1Cl	HL-60(TB) leukemia	TGI	4.07
COc1ccc(-c2cncn2-c2ccc(OC)cc2)cc1	HL-60(TB) leukemia	TGI	26.2
CC[C@H](CC#N)OC(=O)N[C@@H](C)c1cccc(NC(=O)Nc2ccc(-c3cnco3)c(OC)c2)c1	HL-60(TB) leukemia	TGI	38.5
C[C@H]1[C@H](C)CC[C@]2(C(=O)O)CC[C@]3(C)C(=CC[C@@H]4[C@@]5(C)C/C(=C/c6cccnc6)[C@H](O)C(C)(C)[C@@H]5CC[C@]43C)[C@H]12	HL-60(TB) leukemia	TGI	32.6

Give TGI for all molecules that follow.
1. CC1OC2CC(=O)OC2C2=C1C(=O)c1c(O)c3c(c(O)c1C2=O)C1CC(O)C3(O)C(C)O1 (stereo not given)
2. CN1CN(c2ccccc2)C2(CCN(CCc3csc4ccccc34)CC2)C1=O
3. CC(=O)Nc1ccc2c3c(cc(O)c2c1)N(C(=O)CCCCC(=O)Nc1ccc2c4c(cc(O)c2c1)N(C(=O)OC(C)(C)C)CC4CCl)CC3CCl (stereo not given)

1: 1.06; 2: 31.2; 3: 12.4

Can you give me TGI for all of these, one by one?
1. Brc1ccc2[nH]cc(-c3nc(-c4c[nH]c5ccccc45)cs3)c2c1
2. C#CC[C@@H]1C[C@]2(C)[C@H]3CC=C4[C@H]5CC(C)(C)CC[C@]5(C(=O)NCCCCN)CC[C@@]4(C)[C@]3(C)CC[C@H]2C(C)(C)[C@H]1OC(C)=O

1: 16.1; 2: 3.71

---

Test system: COLO 205 colon
EXPERIMENT NOTES: NCI tumour cell line growth inhibition, 48 h
Give TGI for every item shown.
Answers are plain numbers, in µM.

O=[N+]([O-])c1cn[n+]([O-])c2ccccc12 26.5
CC[C@H](CC#N)OC(=O)N[C@@H](C)c1cccc(NC(=O)Nc2ccc(-c3cnco3)c(OC)c2)c1 18

Hi team, please reply with TGI for each item in this list.
1. Cc1ccc2c(n1)C(=O)c1ccccc1C2=O
2. CN(C)c1ccc(N=Nc2ccccn2)cc1
3. COc1cc(Nc2nc(N[C@H]3CCCC[C@@H]3N)nc3cc[nH]c(=O)c23)cc(OC)c1

[37, 21.8, 2.49]

---

System: UACC-257 melanoma
EXPERIMENT NOTES: NCI tumour cell line growth inhibition, 48 h
I'd be grateful if you could share measured TGI for these entries.

COMPOUND	TGI
COc1cc(Cn2c3c(c4c(C(=O)NCCN(C)C)c(O)ccc42)C(=O)c2ccccc2C3=O)cc(OC)c1	3.97 µM
CC(=O)[O-].CC(=O)[O-].[NH2-].[Pt+2].c1ccc2cnccc2c1	6.49 µM
COc1ccc(O)c(C#N)c1C#N	> 100 µM
CC(=O)n1c2ccccc2c2nc3nc(Oc4ccc(C)cc4)c4ccccc4c3cc21	> 100 µM
Cc1cccc2c1NC(=S)[C@@H]1CCCN1C2=O	> 100 µM

State the recorded TGI for every item in the following list.
1. Cc1ccc(Nc2cc(=O)[nH]c(=S)[nH]2)cc1
2. NCc1ccc(C(=O)O)cc1
3. CC1OC2CC(=O)OC2C2=C1C(=O)c1c(O)c3c(c(O)c1C2=O)C1CC(O)C3(O)C(C)O1 (stereo unspecified)

1. > 100 µM
2. > 100 µM
3. 0.525 µM
